I'd appreciate it if you could supply MIC values for the items below.
- Test system: Staphylococcus aureus
- procedure_text: Antimicrobial activity against methicillin-resistant Staphylococcus aureus CCARM 3635 incubated for 24 hrs by microtiter broth dilution method
- Format: functional
- measurement_context: CCARM 3635, 24 h
State just the number; it will be interpreted in mg/L.

input: Consider the compound CC12C[C@@]34C=CC(=O)[C@@](C)(CCC(=O)Nc5c(O)ccc(C(=O)O)c5O)C3[C@H](CC1C4)O2 (stereo not given in full) tested on Staphylococcus aureus; state its MIC.
output: 8

input: Report its MIC with Staphylococcus aureus as the test system: O=C1O/C(=C\c2cc(Br)c(O)c(Br)c2)C(c2cc(Br)c(O)c(Br)c2)=C1C(=O)c1cc(Br)c(O)c(Br)c1 [CADIOLIDE B]
output: 0.5

input: Enter recorded MIC with Staphylococcus aureus for O=C1C=C(c2ccc(O)c(Br)c2)/C(=C/c2cc(Br)c(O)c(Br)c2)O1 [RUBROLIDE J] here.
output: 2

Measured values drawn from ChEMBL document CHEMBL2203068 for this set.
